Test Target: purified human, His-tagged PRC2 complex (Homo sapiens (Human), UniProt O75530)
Sequence (O75530 whole entry): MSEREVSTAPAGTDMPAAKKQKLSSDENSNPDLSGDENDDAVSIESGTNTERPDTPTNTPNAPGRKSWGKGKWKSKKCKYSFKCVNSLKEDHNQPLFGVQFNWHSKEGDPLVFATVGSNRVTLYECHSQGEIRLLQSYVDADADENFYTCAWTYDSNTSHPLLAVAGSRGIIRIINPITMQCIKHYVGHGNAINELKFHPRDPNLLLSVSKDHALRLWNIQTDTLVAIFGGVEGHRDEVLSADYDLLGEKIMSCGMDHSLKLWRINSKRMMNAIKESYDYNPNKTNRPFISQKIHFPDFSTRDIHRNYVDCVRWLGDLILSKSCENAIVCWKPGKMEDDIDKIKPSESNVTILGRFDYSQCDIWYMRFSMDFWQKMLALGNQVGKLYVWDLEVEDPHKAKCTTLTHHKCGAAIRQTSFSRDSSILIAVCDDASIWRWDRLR
Sequence (Q15910 whole entry partner): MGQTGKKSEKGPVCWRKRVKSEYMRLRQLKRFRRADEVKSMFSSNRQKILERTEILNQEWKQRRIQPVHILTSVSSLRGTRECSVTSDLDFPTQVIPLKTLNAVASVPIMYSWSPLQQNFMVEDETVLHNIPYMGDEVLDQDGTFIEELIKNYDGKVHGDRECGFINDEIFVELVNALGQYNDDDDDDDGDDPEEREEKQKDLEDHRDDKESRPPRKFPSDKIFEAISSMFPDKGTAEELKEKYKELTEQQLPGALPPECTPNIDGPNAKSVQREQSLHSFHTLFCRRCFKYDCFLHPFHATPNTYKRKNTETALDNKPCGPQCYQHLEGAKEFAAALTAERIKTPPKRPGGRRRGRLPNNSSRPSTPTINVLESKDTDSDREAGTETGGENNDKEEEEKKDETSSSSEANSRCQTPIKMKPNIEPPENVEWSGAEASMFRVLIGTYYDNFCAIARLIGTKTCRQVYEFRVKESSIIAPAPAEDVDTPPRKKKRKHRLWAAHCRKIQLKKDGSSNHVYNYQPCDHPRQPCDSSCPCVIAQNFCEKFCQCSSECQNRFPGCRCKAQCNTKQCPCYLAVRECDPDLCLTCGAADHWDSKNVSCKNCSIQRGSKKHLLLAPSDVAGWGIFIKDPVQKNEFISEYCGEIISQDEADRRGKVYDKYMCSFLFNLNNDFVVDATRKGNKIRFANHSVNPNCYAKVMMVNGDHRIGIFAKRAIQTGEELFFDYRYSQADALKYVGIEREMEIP
Sequence (Q15022 whole entry partner): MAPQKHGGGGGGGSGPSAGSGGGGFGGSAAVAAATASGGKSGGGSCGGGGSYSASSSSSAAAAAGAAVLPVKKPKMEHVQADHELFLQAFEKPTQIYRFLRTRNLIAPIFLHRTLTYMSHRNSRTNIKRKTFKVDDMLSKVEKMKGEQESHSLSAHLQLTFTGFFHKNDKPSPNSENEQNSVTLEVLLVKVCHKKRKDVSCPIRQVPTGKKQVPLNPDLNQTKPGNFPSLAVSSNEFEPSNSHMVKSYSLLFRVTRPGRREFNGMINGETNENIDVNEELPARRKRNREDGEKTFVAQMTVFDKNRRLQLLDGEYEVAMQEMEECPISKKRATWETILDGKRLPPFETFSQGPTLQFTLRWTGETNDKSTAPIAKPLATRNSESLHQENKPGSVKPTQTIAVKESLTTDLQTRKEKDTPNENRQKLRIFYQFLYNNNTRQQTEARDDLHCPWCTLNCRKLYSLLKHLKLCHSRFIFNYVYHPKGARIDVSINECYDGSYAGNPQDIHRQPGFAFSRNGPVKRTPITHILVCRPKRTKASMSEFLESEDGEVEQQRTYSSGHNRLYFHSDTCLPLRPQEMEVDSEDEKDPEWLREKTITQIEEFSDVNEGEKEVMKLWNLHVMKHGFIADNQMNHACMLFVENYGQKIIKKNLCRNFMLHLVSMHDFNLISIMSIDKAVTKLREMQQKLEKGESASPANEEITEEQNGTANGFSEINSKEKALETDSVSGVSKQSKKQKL
Sequence (Q6ZN18 whole entry partner): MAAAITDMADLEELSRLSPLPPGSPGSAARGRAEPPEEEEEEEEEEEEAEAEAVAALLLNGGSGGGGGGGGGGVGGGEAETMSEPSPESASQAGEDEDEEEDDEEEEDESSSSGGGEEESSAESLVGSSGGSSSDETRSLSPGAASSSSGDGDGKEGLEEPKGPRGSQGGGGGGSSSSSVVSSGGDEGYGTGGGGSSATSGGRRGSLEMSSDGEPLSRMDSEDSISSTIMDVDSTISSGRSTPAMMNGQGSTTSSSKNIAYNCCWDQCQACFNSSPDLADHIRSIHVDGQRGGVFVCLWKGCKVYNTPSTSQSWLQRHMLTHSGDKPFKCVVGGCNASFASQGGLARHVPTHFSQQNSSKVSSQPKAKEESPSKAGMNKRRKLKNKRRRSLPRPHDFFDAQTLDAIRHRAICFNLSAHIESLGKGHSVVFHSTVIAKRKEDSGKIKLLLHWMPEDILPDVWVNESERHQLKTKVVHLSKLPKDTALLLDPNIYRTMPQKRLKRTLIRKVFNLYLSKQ
Sequence (Q09028 whole entry partner): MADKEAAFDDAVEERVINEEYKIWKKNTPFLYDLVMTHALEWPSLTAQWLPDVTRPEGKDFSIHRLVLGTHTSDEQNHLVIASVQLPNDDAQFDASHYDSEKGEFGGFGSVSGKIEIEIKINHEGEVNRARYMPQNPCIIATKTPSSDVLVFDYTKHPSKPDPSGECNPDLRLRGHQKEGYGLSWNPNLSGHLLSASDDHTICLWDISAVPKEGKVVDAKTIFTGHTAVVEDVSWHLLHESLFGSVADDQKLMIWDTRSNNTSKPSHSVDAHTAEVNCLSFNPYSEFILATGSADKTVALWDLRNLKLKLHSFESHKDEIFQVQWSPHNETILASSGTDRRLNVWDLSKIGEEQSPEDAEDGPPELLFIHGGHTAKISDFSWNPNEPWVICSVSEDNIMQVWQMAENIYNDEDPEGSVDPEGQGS
Assay Summary: Hot Spot HMT assay, inhibition of PRC2 enzymatic activity
Assay type: biochemical
Assay Context: 10 nM PRC2 complex, 1 μM 3H-SAM, core histone H3, 10-point dose-response
pIC50: −log10 of the molar value.
Metric Name: pIC50

compound=Cc1nc(N2CCOCC2)ccc1-c1cnc(NCc2c(F)ccc3c2CCO3)n2cc(C#N)nc12 test_target="purified human, His-tagged PRC2 complex (Homo sapiens (Human), UniProt O75530)" assay_result="> 7.00"
compound="N#Cc1cn2c(NCc3c(F)ccc4c3CCO4)ncc(-c3ccc(C4CCN4)cc3)c2n1 (stereo not shown)" test_target="purified human, His-tagged PRC2 complex (Homo sapiens (Human), UniProt O75530)" assay_result="6.30 to 7.00"
compound=Cc1cc(CN(C)C)c(F)cc1-c1cnc(NCc2c(F)ccc3c2CCO3)n2cc(C#N)nc12 test_target="purified human, His-tagged PRC2 complex (Homo sapiens (Human), UniProt O75530)" assay_result="6.30 to 7.00"
compound=COC(=O)c1cc(-c2cnc(NCc3c(F)ccc4c3CCO4)n3cc(C#N)nc23)n(C)n1 test_target="purified human, His-tagged PRC2 complex (Homo sapiens (Human), UniProt O75530)" assay_result="> 7.00"
compound=[2H]C([2H])(Nc1ncc(-c2ccc(CN(C)C)cc2)c2nc(C#N)cn12)c1c(F)ccc2c1CCO2 test_target="purified human, His-tagged PRC2 complex (Homo sapiens (Human), UniProt O75530)" assay_result="> 7.00"

Incoming: Report pIC50 for Cc1nn(C(C)C)cc1-c1cnc(NCc2c(F)ccc3c2CCO3)n2cc(C(N)=O)nc12 please.
Outgoing: > 7.00

Incoming: Any idea what pIC50 was measured for [2H]C([2H])([2H])N(Cc1ccc(-c2cnc(NCc3c(F)ccc4c3CCO4)n3cc(C#N)nc23)c(C)c1)C([2H])([2H])[2H] ?
Outgoing: > 7.00

====

Test Target: purified human, His-tagged PRC2 complex (Homo sapiens (Human), UniProt O75530)
Assay Summary: Hot Spot HMT assay, inhibition of PRC2 enzymatic activity
Assay Context: 10 nM PRC2 complex, 1 μM 3H-SAM, core histone H3, 10-point dose-response
pIC50: −log10 of the molar value.
Each item that follows carries a reported pIC50.

Here are 3 compounds together with their reported answers.
chemical_smiles=Cc1ccc(C#N)cc1-c1cnc(NCc2c(F)ccc3c2CCO3)n2cc(C#N)nc12 metric_name=pIC50 assay_result="6.30 to 7.00"
chemical_smiles=COc1ncc(-c2cnc(NCc3c(F)ccc4c3CCO4)n3cc(C#N)nc23)cc1C#N metric_name=pIC50 assay_result="6.30 to 7.00"
chemical_smiles=Cc1ccc(-c2cnc(NCc3c(F)ccc4c3CCO4)n3cc(C#N)nc23)c(C)n1 metric_name=pIC50 assay_result="> 7.00"

Consider the additional compound presented here.
Incoming: I have this compound here, Cc1cc(C(=O)N(C)C)c(F)cc1-c1cnc(NCc2c(F)ccc3c2CCO3)n2cc(C#N)nc12 , and I need its recorded pIC50.
Outgoing: > 7.00

====

Test Target: purified human, His-tagged PRC2 complex (Homo sapiens (Human), UniProt O75530)
Assay Summary: Hot Spot HMT assay, inhibition of PRC2 enzymatic activity
Assay Context: 10 nM PRC2 complex, 1 μM 3H-SAM, core histone H3, 10-point dose-response
Excerpt: The assay uses purified human, His-tagged PRC2 complex, including N-terminal His-tagged EZH2 enzyme, N-terminal Flag-tagged embryonic ectoderm development protein (EED), N-terminal His-tagged suppressor of zeste 12 (SUZ12), N-terminal His-tagged AEBP2, and N-terminal His-tagged RbAp48. […]
Some compounds, each annotated with its measured IC50.

Some solved cases for reference:
compound=N#Cc1cn2c(NCc3c(F)ccc4c3CCO4)ncc(-c3ccc4c(c3)CNC4)c2n1 test_target="purified human, His-tagged PRC2 complex (Homo sapiens (Human), UniProt O75530)" metric_name=IC50 assay_result="100 to 500 nM"
compound=N#Cc1cn2c(NCc3c(F)ccc4c3CCO4)ncc(-c3cnc(N)c(C(F)(F)F)c3)c2n1 test_target="purified human, His-tagged PRC2 complex (Homo sapiens (Human), UniProt O75530)" metric_name=IC50 assay_result="100 to 500 nM"
compound=CN(C)C(=O)c1ccc(-c2cnc(NCc3c(F)ccc4c3CCO4)n3cc(C#N)nc23)c(Cl)c1 test_target="purified human, His-tagged PRC2 complex (Homo sapiens (Human), UniProt O75530)" metric_name=IC50 assay_result="< 100 nM"
compound=N#Cc1cn2c(NCc3c(F)ccc4c3CCO4)ncc(-c3cncc(C(F)(F)F)c3)c2n1 test_target="purified human, His-tagged PRC2 complex (Homo sapiens (Human), UniProt O75530)" metric_name=IC50 assay_result="> 500 nM"
compound=N#Cc1cn2c(NCc3c(F)ccc4c3CCO4)ncc(-c3ccc(C(=O)O)cc3)c2n1 test_target="purified human, His-tagged PRC2 complex (Homo sapiens (Human), UniProt O75530)" metric_name=IC50 assay_result="< 100 nM"
compound=Cn1nc(C(F)(F)F)cc1-c1cnc(NCc2c(F)ccc3c2CCO3)n2cc(C#N)nc12 test_target="purified human, His-tagged PRC2 complex (Homo sapiens (Human), UniProt O75530)" metric_name=IC50 assay_result="< 100 nM"
compound="CN1CCOCC1c1ccc(-c2cnc(NCc3c(F)ccc4c3CCO4)n3cc(C#N)nc23)cc1 (centres unmarked)" test_target="purified human, His-tagged PRC2 complex (Homo sapiens (Human), UniProt O75530)" metric_name=IC50 assay_result="< 100 nM"
compound=N#Cc1cn2c(NCc3c(F)ccc4c3CCO4)ncc(-c3ccc([C@@H]4CCCN4)cc3)c2n1 test_target="purified human, His-tagged PRC2 complex (Homo sapiens (Human), UniProt O75530)" metric_name=IC50 assay_result="< 100 nM"
compound=CNCc1ccc(-c2cnc(NCc3c(F)ccc4c3CCO4)n3cc(C#N)nc23)cc1 test_target="purified human, His-tagged PRC2 complex (Homo sapiens (Human), UniProt O75530)" metric_name=IC50 assay_result="< 100 nM"
compound=CN(C)Cc1cc(-c2cnc(NCc3c(F)ccc4c3CCO4)n3cc(C#N)nc23)n(C)n1 test_target="purified human, His-tagged PRC2 complex (Homo sapiens (Human), UniProt O75530)" metric_name=IC50 assay_result="< 100 nM"

Incoming: Need IC50, item N#Cc1cn2c(NCc3c(F)ccc4c3CCO4)ncc(-c3cccnn3)c2n1
Outgoing: < 100 nM

Incoming: Could you tell me which IC50 is on file for Cc1ncc(F)cc1-c1cnc(NCc2c(F)ccc3c2CCO3)n2cc(C#N)nc12 ?
Outgoing: < 100 nM

Incoming: For the compound CC(C)Oc1ccc(-c2cnc(NCc3c(F)ccc4c3CCO4)n3cc(C#N)nc23)cn1 , what IC50 is on record?
Outgoing: < 100 nM

Incoming: Reported IC50 for N#Cc1cn2c(NCc3c(F)ccc4c3CCO4)ncc(-c3ccc(S(N)(=O)=O)cc3)c2n1 : what is it?
Outgoing: < 100 nM

Incoming: Could you share which IC50 value was measured for Cc1ncccc1-c1cnc(NCc2c(F)ccc3c2CCO3)n2cc(C(N)=O)nc12 ?
Outgoing: < 100 nM
